Just for reference, patent US12162840B2 is where these values come from.

Recorded Herbicidal activity, SIDSP, one value per entry.
- Tested on: warm season plant species
- experiment: B2 Post-emergence efficacy Test 2, warm season plant species
- Type: in vivo
- experimentalContext: Sida spinosa, 30 g/Ha, 15 days after application, 0-100 scale, 0=no damage, 100=total kill
# print the numeric value only

Examples with answers:
molecule	measurementKind	result
Cc1nn(C)c(=O)c(-c2c(F)ccc(Cl)c2CCc2ccc(Cl)cc2)c1OC(=O)C(C)C [Compound 1.089]	Herbicidal activity, SIDSP	80
Cc1nn(C)c(=O)c(-c2c(F)ccc(Cl)c2CCc2ccc(F)cc2)c1O [Compound 1.048]	Herbicidal activity, SIDSP	80
Cc1nn(C)c(=O)c(-c2c(F)ccc(Cl)c2CCc2ccccc2C(F)(F)F)c1O [Compound 1.066]	Herbicidal activity, SIDSP	80

Could you now look at the following molecule, please?
The reported Herbicidal activity, SIDSP value, warm season plant species, for Cc1nn(C)c(=O)c(-c2c(F)ccc(Cl)c2CCc2ccc(C#N)cc2)c1O [Compound 1.024] reads 90

* * *

- System: warm season plant species
- experiment: B2 Post-emergence efficacy Test 2, warm season plant species
- Format: in vivo
- experimentalContext: Euphorbia hetrophylla, 60 g/Ha, 15 days after application, 0-100 scale, 0=no damage, 100=total kill
measurementKind: Herbicidal activity, EPHHL

Examples with answers:
molecule	Herbicidal activity, EPHHL
Cc1nn(C)c(=O)c(-c2c(F)ccc(Cl)c2CCc2ccc(F)cc2)c1O [Compound 1.048]	90
Cc1nn(C)c(=O)c(-c2c(F)ccc(Cl)c2CCc2ccc(C#N)cc2)c1O [Compound 1.024]	90

Cc1nn(C)c(=O)c(-c2c(F)ccc(Cl)c2CCc2ccc(F)cc2)c1OC(=O)C(C)C [Compound 1.125] has a reported Herbicidal activity, EPHHL of 100

Cc1nn(C)c(=O)c(-c2c(F)ccc(Cl)c2CCc2ccc(Cl)cc2)c1OC(=O)C(C)C [Compound 1.089] has a reported Herbicidal activity, EPHHL of 100

Cc1nn(C)c(=O)c(-c2c(F)ccc(Cl)c2CCc2ccccc2C(F)(F)F)c1O [Compound 1.066] has a reported Herbicidal activity, EPHHL of 80

* * *

Recorded Herbicidal activity (0-100 scale) LOLPE, one value per entry.
- Test system: cool season plant species
- experiment: B2 Post-emergence efficacy Test 2, cool season plant species
- Format: in vivo
- experimentalContext: LOLPE, 30 g/Ha, 15 days after application, 0=no damage, 100=total kill
# print the numeric value only

Examples with answers:
compound	result
Cc1nn(C)c(=O)c(-c2c(F)ccc(Cl)c2CCc2ccc(Cl)cc2)c1OC(=O)C(C)C [Compound 1.089]	70
Cc1nn(C)c(=O)c(-c2c(F)ccc(Cl)c2CCc2ccc(C#N)cc2)c1O [Compound 1.024]	70
Cc1nn(C)c(=O)c(-c2c(F)ccc(Cl)c2CCc2ccccc2C(F)(F)F)c1O [Compound 1.066]	20
Cc1nn(C)c(=O)c(-c2c(F)ccc(Cl)c2CCc2ccc(F)cc2)c1O [Compound 1.048]	40

Could you now look at the following compound, please?
Cc1nn(C)c(=O)c(-c2c(F)ccc(Cl)c2CCc2ccc(F)cc2)c1OC(=O)C(C)C [Compound 1.125] has a reported Herbicidal activity (0-100 scale) LOLPE of 50

* * *

- System: cool season plant species
- experiment: B2 Post-emergence efficacy Test 2, cool season plant species
- Format: in vivo
- experimentalContext: CHEAL, 250 g/Ha, 15 days after application, 0=no damage, 100=total kill
measurementKind: Herbicidal activity (0-100 scale) CHEAL

Examples with answers:
structureString	Herbicidal activity (0-100 scale) CHEAL
Cc1nn(C)c(=O)c(-c2c(F)ccc(Cl)c2CCc2ccc(C#N)cc2)c1O	90
Cc1nn(C)c(=O)c(-c2c(F)ccc(Cl)c2CCc2ccc(Cl)cc2)c1OC(=O)C(C)C	100
Cc1nn(C)c(=O)c(-c2c(F)ccc(Cl)c2CCc2ccc(F)cc2)c1OC(=O)C(C)C	90
Cc1nn(C)c(=O)c(-c2c(F)ccc(Cl)c2CCc2ccccc2C(F)(F)F)c1O	100

Could you now look at the following compound, please?
Cc1nn(C)c(=O)c(-c2c(F)ccc(Cl)c2CCc2ccc(F)cc2)c1O has a reported Herbicidal activity (0-100 scale) CHEAL of 90

* * *

Recorded Herbicidal activity, ZEAMX, one value per entry.
- Test system: warm season plant species
- experiment: B2 Post-emergence efficacy Test 2, warm season plant species
- Format: in vivo
- experimentalContext: Zea mays, 500 g/Ha, 15 days after application, 0-100 scale, 0=no damage, 100=total kill
# print the numeric value only

structureString	system	result
Cc1nn(C)c(=O)c(-c2c(F)ccc(Cl)c2CCc2ccc(C#N)cc2)c1O	warm season plant species	100
Cc1nn(C)c(=O)c(-c2c(F)ccc(Cl)c2CCc2ccc(F)cc2)c1O	warm season plant species	100
Cc1nn(C)c(=O)c(-c2c(F)ccc(Cl)c2CCc2ccc(F)cc2)c1OC(=O)C(C)C	warm season plant species	70
Cc1nn(C)c(=O)c(-c2c(F)ccc(Cl)c2CCc2ccc(Cl)cc2)c1OC(=O)C(C)C	warm season plant species	100

Could you now look at the following compound, please?
Cc1nn(C)c(=O)c(-c2c(F)ccc(Cl)c2CCc2ccccc2C(F)(F)F)c1O has a reported Herbicidal activity, ZEAMX of 70

* * *

Recorded Herbicidal activity, BRAPL, one value per entry.
- System: warm season plant species
- experiment: B2 Post-emergence efficacy Test 2, warm season plant species
- Format: in vivo
- experimentalContext: Brachiaria plantaginea, 250 g/Ha, 15 days after application, 0-100 scale, 0=no damage, 100=total kill
# print the numeric value only

structureString	Herbicidal activity, BRAPL
Cc1nn(C)c(=O)c(-c2c(F)ccc(Cl)c2CCc2ccccc2C(F)(F)F)c1O	70

Cc1nn(C)c(=O)c(-c2c(F)ccc(Cl)c2CCc2ccc(F)cc2)c1O has a reported Herbicidal activity, BRAPL of 90

Cc1nn(C)c(=O)c(-c2c(F)ccc(Cl)c2CCc2ccc(Cl)cc2)c1OC(=O)C(C)C has a reported Herbicidal activity, BRAPL of 90

Cc1nn(C)c(=O)c(-c2c(F)ccc(Cl)c2CCc2ccc(F)cc2)c1OC(=O)C(C)C has a reported Herbicidal activity, BRAPL of 70

Cc1nn(C)c(=O)c(-c2c(F)ccc(Cl)c2CCc2ccc(C#N)cc2)c1O has a reported Herbicidal activity, BRAPL of 70

* * *

- Tested on: cool season plant species
- experiment: B2 Post-emergence efficacy Test 2, cool season plant species
- Assay type: in vivo
- experimentalContext: TRZAW, 250 g/Ha, 15 days after application, 0=no damage, 100=total kill
measurementKind: Herbicidal activity (0-100 scale) TRZAW
# print the numeric value only

structureString	Herbicidal activity (0-100 scale) TRZAW
Cc1nn(C)c(=O)c(-c2c(F)ccc(Cl)c2CCc2ccc(C#N)cc2)c1O	60
Cc1nn(C)c(=O)c(-c2c(F)ccc(Cl)c2CCc2ccccc2C(F)(F)F)c1O	70

Cc1nn(C)c(=O)c(-c2c(F)ccc(Cl)c2CCc2ccc(F)cc2)c1O has a reported Herbicidal activity (0-100 scale) TRZAW of 50

Cc1nn(C)c(=O)c(-c2c(F)ccc(Cl)c2CCc2ccc(Cl)cc2)c1OC(=O)C(C)C has a reported Herbicidal activity (0-100 scale) TRZAW of 60

Cc1nn(C)c(=O)c(-c2c(F)ccc(Cl)c2CCc2ccc(F)cc2)c1OC(=O)C(C)C has a reported Herbicidal activity (0-100 scale) TRZAW of 30

* * *

- System: warm season plant species
- experiment: B2 Post-emergence efficacy Test 2, warm season plant species
- Format: in vivo
- experimentalContext: Sida spinosa, 60 g/Ha, 15 days after application, 0-100 scale, 0=no damage, 100=total kill
measurementKind: Herbicidal activity, SIDSP
# print the numeric value only

Examples with answers:
structureString	system	Herbicidal activity, SIDSP
Cc1nn(C)c(=O)c(-c2c(F)ccc(Cl)c2CCc2ccc(F)cc2)c1OC(=O)C(C)C	warm season plant species	80
Cc1nn(C)c(=O)c(-c2c(F)ccc(Cl)c2CCc2ccccc2C(F)(F)F)c1O	warm season plant species	80
Cc1nn(C)c(=O)c(-c2c(F)ccc(Cl)c2CCc2ccc(C#N)cc2)c1O	warm season plant species	90
Cc1nn(C)c(=O)c(-c2c(F)ccc(Cl)c2CCc2ccc(F)cc2)c1O	warm season plant species	80

Could you now look at the following compound, please?
The reported Herbicidal activity, SIDSP value, warm season plant species, for Cc1nn(C)c(=O)c(-c2c(F)ccc(Cl)c2CCc2ccc(Cl)cc2)c1OC(=O)C(C)C reads 90

* * *

- Tested on: warm season plant species
- experiment: B2 Post-emergence efficacy Test 2, warm season plant species
- Assay type: in vivo
- experimentalContext: Glycine max, 15 g/Ha, 15 days after application, 0-100 scale, 0=no damage, 100=total kill
measurementKind: Herbicidal activity, GLXMA
# print the numeric value only

compound	system	Herbicidal activity, GLXMA
Cc1nn(C)c(=O)c(-c2c(F)ccc(Cl)c2CCc2ccc(F)cc2)c1O [Compound 1.048]	warm season plant species	70
Cc1nn(C)c(=O)c(-c2c(F)ccc(Cl)c2CCc2ccc(C#N)cc2)c1O [Compound 1.024]	warm season plant species	70

Cc1nn(C)c(=O)c(-c2c(F)ccc(Cl)c2CCc2ccc(F)cc2)c1OC(=O)C(C)C [Compound 1.125] has a reported Herbicidal activity, GLXMA of 40

Cc1nn(C)c(=O)c(-c2c(F)ccc(Cl)c2CCc2ccccc2C(F)(F)F)c1O [Compound 1.066] has a reported Herbicidal activity, GLXMA of 20
